// reported TGI for each item listed
Test system: U251 CNS
ASSAY DETAILS: NCI tumour cell line growth inhibition, 48 h

Write down TGI measured for item COC(=O)C1(F)C(=O)NC(=O)NC1OC (stereo not drawn) > 100 µM

***
Write down TGI measured for item `Cc1ccccc1NC(=O)C(=O)CC(=O)c1ccc([N+](=O)[O-])cc1` > 100 µM

Write down TGI measured for item CC1(C)OC(COCCOCCCCCO)C(COCCOCCCCCO)O1 (stereo not drawn) > 100 µM

====

// reported TGI for each item listed
Tested on: T-47D breast
ASSAY DETAILS: NCI tumour cell line growth inhibition, 48 h

Write down TGI measured for item `O=C1CC2(CCNCC2)C(=O)N1N1CCOCC1` > 100 µM

Write down TGI measured for item `COc1cc([C@H]2c3[nH]c4ccccc4c3C[C@H]3COC(=O)N32)cc(OC)c1O` > 100 µM

Write down TGI measured for item O=C1CSC2(CC(/C=C/c3ccccc3Br)=NN2c2cccc(S(=O)(=O)O)c2)N1c1nc2ccccc2s1 (stereo not given) > 100 µM

Write down TGI measured for item `Cn1cc(CO)c2ccccc21` > 100 µM

Write down TGI measured for item COc1ccc(-c2nc(-c3cnccn3)n(C3OC(CO)C(O)C(O)C3O)n2)cc1 (stereo not given) > 100 µM

Write down TGI measured for item `O=[N+]([O-])c1ccc(NS(=O)(=O)C(F)(F)F)cc1` > 100 µM

Write down TGI measured for item `O=P(O)(O)CN1CCNCCN(CP(=O)(O)O)CCNCC1` > 100 µM

Write down TGI measured for item `CNc1ccc(Cl)cc1S(=O)(=O)c1ccccc1[N+](=O)[O-]` > 100 µM

Write down TGI measured for item `Cc1ccc(/C=C2\CNC/C(=C\c3ccc(C)cc3)C2=O)cc1` > 24.8 µM

Write down TGI measured for item `Cc1cc(NC(=O)NC(=O)c2ccccc2N(C)C)ccc1Oc1ncc(Br)cn1` > 56.2 µM

Write down TGI measured for item `CCOC(=O)/C(C#N)=C/N(CC)/N=C/c1ccccc1` > 100 µM

Write down TGI measured for item `COC(=O)c1ccc(/C=C2\CCc3ccccc3C2=O)cc1` > 100 µM

Write down TGI measured for item `c1ccc([P+](c2ccccc2)(c2ccccc2)c2ccc([P+](c3ccccc3)(c3ccccc3)c3ccccc3)cc2)cc1` > 100 µM

Write down TGI measured for item `COc1ccc(C(=O)C[C@]2(O)C(=O)Nc3c(Cl)ccc(Cl)c32)cc1` > 100 µM

Write down TGI measured for item CCN1C(=O)CS/C1=N/NC(=O)C(O)(c1ccccc1)C1C=CC=CC1 (stereo not given) > 10 µM

Write down TGI measured for item `CC(C)(C)OC(=O)N1CCc2c(n(C/C=C/c3ccccc3)[nH]c2=O)C1` > 100 µM

Write down TGI measured for item `O=c1oc2ccc(Cl)cc2cc1-c1cn2ccsc2n1` > 100 µM

Write down TGI measured for item `COC(=O)[C@H](Cc1ccccc1)NC(=O)c1csc([C@@H](C[C@H](C(C)C)N(C)C(=O)[C@@H](NC(=O)[C@H]2CCCN2C)C2CC2)OC(C)=O)n1` > 33.3 µM

Write down TGI measured for item `CCOC(=O)CCCn1cc(C(=O)OC)nn1` > 100 µM

Write down TGI measured for item `O=S1(=O)CCN(c2ccccc2CC(c2c[nH]c3ccccc23)c2c[nH]c3ccccc23)CC1` > 100 µM

====

Test system: NCI-H226 lung
ASSAY DETAILS: NCI tumour cell line growth inhibition, 48 h
MEASUREMENT KIND: TGI

Write down TGI measured for item `CC1=C2NCN(C)N=C2C(C#N)(C#N)C1(C#N)C#N` > 100 µM

***
Write down TGI measured for item `Cc1cn([C@H]2[C@@H](CO)C[C@H]2O)c(=O)[nH]c1=O` > 100 µM

Write down TGI measured for item `Cn1cnc([N+](=O)[O-])c1Sc1nc(N)nc2nc[nH]c12` > 100 µM

====

Test system: SK-MEL-28 melanoma
ASSAY DETAILS: NCI tumour cell line growth inhibition, 48 h
// reported TGI for each item listed

Here is how some compounds turned out for TGI.
Write down TGI measured for item COc1ccc(-c2nc3c(c(=O)n2C(C)=O)C(c2ccc(Cl)cc2)c2sc4c(Cl)cccc4c2O3)cc1 (stereo not drawn) 3.39 µM

Write down TGI measured for item COC(=O)C(C(=O)C(=O)NC1Nc2ccc(C)cc2S1)c1nc2ccc(Cl)cc2[nH]c1=O (stereo not drawn) > 100 µM

Write down TGI measured for item `NC(=O)c1cc(I)ccc1NC(=O)COc1ccccc1` > 100 µM

Write down TGI measured for item `Cc1cc2n([O-])cccc-2[n+](=O)c1` > 100 µM

Write down TGI measured for item CCOC(=O)C1CCCCc2sc(N)c(C#N)c21 (stereo not drawn) > 100 µM

Write down TGI measured for item `CC(C)(C)OC(=O)N1CCc2c(n(C/C=C/c3ccccc3)[nH]c2=O)C1` > 100 µM

Write down TGI measured for item `C=CCOC(=O)CCCCCCCCCCCCCCCOC(=O)C1=C(CCC[C@@H](C)O[Si](C)(C)C(C)(C)C)NC(=O)N2[C@H](CC3(CC/C=C\[C@H](CC)O[Si](C(C)C)(C(C)C)C(C)C)OCCO3)CC[C@H]12` > 100 µM

Write down TGI measured for item `CC1=C2C(=O)c3ccccc3C(=O)[C@H]2C[C@@H](N2CCCCCC2=O)O1` 35.7 µM

Write down TGI measured for item CC(=O)OCCC(O[Si](c1ccccc1)(c1ccccc1)C(C)(C)C)C(C)(C)O (stereo not drawn) > 100 µM

Write down TGI measured for item `[N-]=[N+]=C(C(=O)C(=[N+]=[N-])C(=O)c1ccccc1)C(=O)c1ccccc1` > 100 µM

***
Write down TGI measured for item O=[N+]([O-])C1C2C=CC(C2)[C@H]1c1ccc(Cl)cc1Cl (stereo partly drawn) > 100 µM

Write down TGI measured for item CC1(C)COC(c2c(-c3ccccc3)noc2CS(=O)c2ccccc2)=N1 (stereo not drawn) > 100 µM

Write down TGI measured for item `Cc1cc2occ(-c3ccc(Cl)cc3)c2c(=O)o1` > 100 µM

====

System: SK-MEL-2 melanoma
ASSAY DETAILS: NCI tumour cell line growth inhibition, 48 h
// reported TGI for each item listed

Here is how some molecules turned out for TGI.
Write down TGI measured for item COc1ccc2cc(-c3c(-c4ccncc4)nc(-c4ccc(S(C)=O)cc4C)n3C)ccc2c1 (configuration not stated) > 25 µM

Write down TGI measured for item O=C1CSC2(CC(/C=C/c3ccccc3Br)=NN2c2cccc(S(=O)(=O)O)c2)N1c1nc2ccccc2s1 (configuration not stated) > 100 µM

Write down TGI measured for item `Fc1cc(-c2nnc3n2N=C(c2ccc(Cl)cc2Cl)CS3)c(Cl)cc1Cl` > 100 µM

Write down TGI measured for item `CC[C@H](C)[C@H](NC(=O)[C@H]1CCCCN1C)C(=O)N(C)[C@H](C[C@@H](OC(C)=O)c1nc(C(=O)N[C@@H](Cc2ccccc2)C[C@H](C)C(=O)OC)cs1)C(C)C` < 0.0025 µM

Write down TGI measured for item `Cc1c2cccc-2ccc2c1[nH]c1ccccc12` 3.39 µM

***
Write down TGI measured for item CCCCCCOP(=O)(OCCCCCC)OC(C(=O)OC)C(F)(F)F (configuration not stated) > 100 µM

Write down TGI measured for item `O=C(Nc1cc(S(=O)(=O)c2ccc(Cl)cc2)ccc1Cl)c1cc(I)cc(I)c1O` 39.4 µM

====

Test system: EKVX NSCLC
ASSAY DETAILS: NCI tumour cell line growth inhibition, 48 h
// reported TGI for each item listed

Here is how some compounds turned out for TGI.
Write down TGI measured for item `COc1cccc(CN(C(=O)/C=C\Sc2ccccc2)C(C)(C)C)c1` > 100 µM

Write down TGI measured for item `COc1cc2cc(Oc3ccc(NC(=O)c4cccc5c4OCCO5)cc3)c(C)nc2cc1OC` > 100 µM

Now for the compound whose TGI we want.
Write down TGI measured for item CC1=C(C(=O)CC(=O)C(=O)NC2C3CC4CC(C3)CC2C4)Sc2ccccc2N1 (stereo not drawn) > 100 µM

====

// reported TGI for each item listed
Test system: NCI/ADR-RES ovarian
ASSAY DETAILS: NCI tumour cell line growth inhibition, 48 h

Here is how some compounds turned out for TGI.
# assay system NCI/ADR-RES ovarian: give TGI of `COc1ccc(C(=O)c2ccc(-n3cc(/C=C/[N+](=O)[O-])c4ccccc43)cc2)cc1` 56.5 µM

# assay system NCI/ADR-RES ovarian: give TGI of `O=C1CSc2nnc(CCCCCCCCc3nnc4n3NC(=O)CS4)n2N1` > 100 µM

# assay system NCI/ADR-RES ovarian: give TGI of `CC(C)(CO)N=Cc1ccccc1[O-].CC(C)(CO)N=Cc1ccccc1[O-].[Co+2]` > 100 µM

Now for the compound whose TGI we want.
# assay system NCI/ADR-RES ovarian: give TGI of `Cc1cc(S(=O)(=O)O)c(NC(=O)c2oc3cc(O)ccc3c(=O)c2C)cc1Cl` > 100 µM
